These data points were gathered from ChEMBL document CHEMBL1141102.

assay: Percent inhibition of CD58 and CD2 interaction in caco-2 and Jurkat cell adhesion assay at 90 uM; type: functional; settings: Homo sapiens
Where a SMILES comes first, the peptide text is derived from it. Bridges are numbered along the chain shown (N, C = ends). [ ]: non-standard residue; d: D form. Pen = CC(C)(S)[C@H](N)C(=O)O
quantity_kind: inhibition at 90 µM (%)
Numbers only here, please. The scale is %.

molecule	value_unit	inhibition at 90 µM
C[C@@H](O)[C@@H]1NC(=O)[C@@H](CC(=O)O)NC(=O)[C@H](Cc2ccc(O)cc2)NC(=O)[C@@H](CCCCN)NC(=O)CNC(=O)[C@@H](CCCCN)NC1=O	%	20

Lab note: next molecule to report on.
Which inhibition at 90 µM is reported for this molecule? C[C@@H]1NC(=O)[C@@H](N)C(C)(C)SSC[C@@H](C(=O)O)NC(=O)[C@H](Cc2ccccc2)NC(=O)[C@H]([C@@H](C)O)NC(=O)[C@H](CCC(=O)O)NC(=O)[C@H](CCCCN)NC(=O)[C@H](CCC(=O)O)NC(=O)[C@H](CCCCN)NC(=O)[C@H](CCCN=C(N)N)NC(=O)[C@H](Cc2ccccc2)NC(=O)[C@H](CCC(N)=O)NC1=O (H-[Pen]AQFRKEKETFC-OH; disulfide 1-12)
50
